Tested on: 874868-142-R-J2-PDC complex spheroids, growth % test/control
Assay: Anticancer human tumor 874868-142-R-J2-PDC patient-derived head and neck squamous carcinoma cell line growth inhibition [CLK]
Details: second compound 0.1 µM; first compound 10 µM; active compounds read low
// boundary case: viability, T/C equal to 60% maps to No; strictly smaller maps to Yes

Example results:
Nc1ccccc1NC(=O)c1ccc(CNC(=O)OCc2cccnc2)cc1 + CN1CCN(c2cc(C(=O)Nc3cc4cc(-c5cnn(C)c5)ccc4cn3)ccn2)CC1
Yes
CCCS(=O)(=O)Nc1ccc(F)c(C(=O)c2c[nH]c3ncc(-c4ccc(Cl)cc4)cc23)c1F + CN1CCN(c2cc(C(=O)Nc3cc4cc(-c5cnn(C)c5)ccc4cn3)ccn2)CC1
No
C#Cc1c(F)ccc2cc(O)cc(-c3ncc4c(N5CC6CCC(C5)N6)nc(OCC56CCCN5CC(F)C6)nc4c3F)c12 (stereo not given) + CNC(=O)c1ccc(Nc2nc(OC3CCCC3)c3c(-c4ccc5nc(C)oc5c4)c[nH]c3n2)c(OC)c1
Yes

With those in mind, consider the next molecule.
Qu. Quick check: does CC(CO)NC(=O)c1cc(-c2ccc(Cl)cc2)nn(-c2cnn(C)c2)c1=O (stereo not given) + CN1CCN(c2cc(C(=O)Nc3cc4cc(-c5cnn(C)c5)ccc4cn3)ccn2)CC1 have viability, T/C under 60%?
Ans. No

---

Test system: 874868-142-R-J2-PDC complex spheroids, growth % test/control
Experiment: Anticancer human tumor 874868-142-R-J2-PDC cell line growth inhibition [CLK];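 further: spheroids exposed to the compounds for 7 days; 100% = DMSO vehicle control viability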
Conditions: second compound 0.316 µM; first compound 0.0316 µM; active compounds read low
endpoint.label: viability, T/C (%)
Enter your answer as a number in %; do not include the unit.

Example entries begin here.
CC(CO)NC(=O)c1cc(-c2ccc(Cl)cc2)nn(-c2cnn(C)c2)c1=O (stereo not given) + CN1CCN(c2cc(C(=O)Nc3cc4cc(-c5cnn(C)c5)ccc4cn3)ccn2)CC1
19.4
O=c1[nH]cc(F)c(=O)[nH]1 + CNC(=O)c1ccc(Nc2nc(OC3CCCC3)c3c(-c4ccc5nc(C)oc5c4)c[nH]c3n2)c(OC)c1
54
C=C(F)C(=O)N1CCN(c2nc(OCC3CCCN3C)nc3c2CCN(c2cccc4cccc(Cl)c24)C3)CC1CC#N (stereo not given) + CNC(=O)c1ccc(Nc2nc(OC3CCCC3)c3c(-c4ccc5nc(C)oc5c4)c[nH]c3n2)c(OC)c1
50.5
COc1ccc([C@@H](O)c2cc(-c3ncnc4cc(N5CCOCC5)ccc34)c(F)cc2Cl)nn1 + CNC(=O)c1ccc(Nc2nc(OC3CCCC3)c3c(-c4ccc5nc(C)oc5c4)c[nH]c3n2)c(OC)c1
52.7

Please examine the following record next.
Qu. # return recorded viability, T/C for entry CCN1CCN(Cc2ccc(Nc3ncc(F)c(-c4cc(F)c5nc(C)n(C(C)C)c5c4)n3)nc2)CC1 + CNC(=O)c1ccc(Nc2nc(OC3CCCC3)c3c(-c4ccc5nc(C)oc5c4)c[nH]c3n2)c(OC)c1
Ans. 56.2

---

Tested on: 874868-142-R-J2-PDC complex spheroids, growth % test/control
Test: Anticancer human tumor 874868-142-R-J2-PDC cell line growth inhibition [CLK];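 further: spheroids exposed to the compounds for 7 days; 100% = DMSO vehicle control viability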
Details: second compound 3.16 µM; first compound 0.0316 µM; active compounds read low
The threshold is 0.2%. Values of viability, T/C beneath it are tagged satisfied; values meeting or exceeding it are tagged not satisfied.

These recorded examples may help you get a feel for the data.
CC(Nc1ccc2c(c1)OCCn1cc(N3C(=O)OCC3C(F)F)nc1-2)C(N)=O (stereo not given) + CN1CCN(c2cc(C(=O)Nc3cc4cc(-c5cnn(C)c5)ccc4cn3)ccn2)CC1
not satisfied
C=CC(=O)N1CCN(c2nc(=O)n(-c3c(C)ccnc3C(C)C)c3nc(-c4c(O)cccc4F)c(F)cc23)C(C)C1 (stereo not given) + CNC(=O)c1ccc(Nc2nc(OC3CCCC3)c3c(-c4ccc5nc(C)oc5c4)c[nH]c3n2)c(OC)c1
not satisfied
COc1ccc([C@@H](O)c2cc(-c3ncnc4cc(N5CCOCC5)ccc34)c(F)cc2Cl)nn1 + CN1CCN(c2cc(C(=O)Nc3cc4cc(-c5cnn(C)c5)ccc4cn3)ccn2)CC1
not satisfied
CC(=O)O[C@H]1C(=O)[C@@]2(C)[C@H]([C@H](OC(=O)c3ccccc3)[C@]3(O)C[C@H](OC(=O)[C@H](O)[C@@H](NC(=O)c4ccccc4)c4ccccc4)C(C)=C1C3(C)C)[C@]1(OC(C)=O)CO[C@@H]1C[C@@H]2O + CNC(=O)c1ccc(Nc2nc(OC3CCCC3)c3c(-c4ccc5nc(C)oc5c4)c[nH]c3n2)c(OC)c1
not satisfied
CC1COCCN1c1cc(C2(S(C)(=N)=O)CC2)nc(-c2ccnc3[nH]ccc23)n1 (stereo not given) + CN1CCN(c2cc(C(=O)Nc3cc4cc(-c5cnn(C)c5)ccc4cn3)ccn2)CC1
satisfied
COC1C=CCC(C)C(C)S(=O)(=O)NC(=O)c2ccc3c(c2)N(CC2CCC21)CC1(CCCc2cc(Cl)ccc21)CO3 (stereo not given) + CN1CCN(c2cc(C(=O)Nc3cc4cc(-c5cnn(C)c5)ccc4cn3)ccn2)CC1
not satisfied
COC1C=CCC(C)C(C)S(=O)(=O)NC(=O)c2ccc3c(c2)N(CC2CCC21)CC1(CCCc2cc(Cl)ccc21)CO3 (stereo not given) + CNC(=O)c1ccc(Nc2nc(OC3CCCC3)c3c(-c4ccc5nc(C)oc5c4)c[nH]c3n2)c(OC)c1
not satisfied
C=C(F)C(=O)N1CCN(c2nc(OCC3CCCN3C)nc3c2CCN(c2cccc4cccc(Cl)c24)C3)CC1CC#N (stereo not given) + CN1CCN(c2cc(C(=O)Nc3cc4cc(-c5cnn(C)c5)ccc4cn3)ccn2)CC1
not satisfied

Qu. In plain terms, does O=C(c1cc(Cc2n[nH]c(=O)c3ccccc23)ccc1F)N1CCN(C(=O)C2CC2)CC1 + CN1CCN(c2cc(C(=O)Nc3cc4cc(-c5cnn(C)c5)ccc4cn3)ccn2)CC1 come in under 0.2% for viability, T/C?
Ans. satisfied

Qu. hey, is viability, T/C for C=CC(=O)N1CCN(c2nc(=O)n(-c3c(C)ccnc3C(C)C)c3nc(-c4c(O)cccc4F)c(F)cc23)C(C)C1 (stereo not given) + CN1CCN(c2cc(C(=O)Nc3cc4cc(-c5cnn(C)c5)ccc4cn3)ccn2)CC1 lower than 0.2% or not?
Ans. satisfied
